Source listed as paper PMC3506555.

Test system: P-gp
Assay: PET Logan graphical analysis of brain VT, baseline and after tariquidar P-gp block
Format: in vivo, Sprague–Dawley rats
Conditions: Sprague-Dawley, rat, occipital cortex (relative to plasma), intravenous; baseline, n = 5, metabolite-corrected plasma input and brain data; read-out: VT (Logan), occipital cortex
Measurement label: Kp
Could you keep your reply to the number by itself?

The measured Kp associated with O=C1N[11C](=O)NC1(c1ccccc1)c1ccccc1 [[^11C]phenytoin] reads 0.91

* * *

Test system: P-gp
Experiment: PET Logan graphical analysis of brain VT, baseline and after tariquidar P-gp block
Format: in vivo, Sprague–Dawley rats
Details: Sprague-Dawley, rat, occipital cortex (relative to plasma), iv, with tariquidar 15 mg/kg i.v.; after tariquidar 15 mg·kg^−1 i.v., n = 5, metabolite-corrected; read-out: VT (Logan), occipital cortex
Measurement label: Kp
I'd appreciate a reply containing only the number, no unit.

Kp measured on O=C1N[11C](=O)NC1(c1ccccc1)c1ccccc1 [[^11C]phenytoin] = 1.3

* * *

System: multi-resistant protein (MRP) efflux proteins
Assay: PET Logan graphical analysis of brain VT after probenecid
Type: in vivo, Sprague–Dawley rats
Conditions: Sprague-Dawley, rat, hippocampus (relative to plasma), iv, with probenecid 150 mg/kg i.v.; after probenecid 150 mg·kg^−1 i.v., n = 2, metabolite-corrected; read-out: VT (Logan), hippocampus
Method: Following cannulation of the femoral vein, animals were positioned in pairs in a double LSO/LYSO layer high-resolution research tomograph (CTI/Siemens, Knoxville, TN, USA). First, for attenuation and scatter correction purposes, a transmission scan was acquired using a 740-MBq two-dimensional fan-collimated ^137Cs (662 keV) moving point source. […] PET image data were analyzed using the freely available software package Amide 0.9 [31]. […]
Measurement label: Kp
Please reply with the value in numeric form only.

What the record says about O=C1N[11C](=O)NC1(c1ccccc1)c1ccccc1 [[^11C]phenytoin] : Kp is 0.59

* * *

System: P-gp
Test: PET Logan graphical analysis of brain VT, baseline and after tariquidar P-gp block
Format: in vivo, Sprague–Dawley rats
Settings: Sprague-Dawley, rat, caudate putamen (relative to plasma), intravenous; baseline, n = 5, metabolite-corrected plasma input and brain data; read-out: VT (Logan), caudate putamen
Measurement label: Kp
Respond with the number and no other words.

In plain terms, O=C1N[11C](=O)NC1(c1ccccc1)c1ccccc1 [[^11C]phenytoin] has a documented Kp of 0.98

* * *

Tested on: multi-resistant protein (MRP) efflux proteins
Test: PET Logan graphical analysis of brain VT after probenecid
Format: in vivo, Sprague–Dawley rats
Settings: Sprague-Dawley, rat, caudate putamen (relative to plasma), iv, with probenecid 150 mg/kg i.v.; after probenecid 150 mg·kg^−1 i.v., n = 2, metabolite-corrected; read-out: VT (Logan), caudate putamen
Measurement label: Kp
Reply: number alone, nothing else.

Lab note: measured Kp of O=C1N[11C](=O)NC1(c1ccccc1)c1ccccc1 [[^11C]phenytoin] was 0.57

* * *

Test system: P-gp
Test: PET Logan graphical analysis of brain VT, baseline and after tariquidar P-gp block
Format: in vivo, Sprague–Dawley rats
Conditions: Sprague-Dawley, rat, parietal cortex (relative to plasma), iv, with tariquidar 15 mg/kg i.v.; after tariquidar 15 mg·kg^−1 i.v., n = 5, metabolite-corrected; read-out: VT (Logan), parietal cortex
Measurement label: Kp
# answer = number (no unit)

# Kp of O=C1N[11C](=O)NC1(c1ccccc1)c1ccccc1 [[^11C]phenytoin] = 1.35

* * *

Test system: P-gp
Test: PET Logan graphical analysis of brain VT, baseline and after tariquidar P-gp block
Format: in vivo, Sprague–Dawley rats
Settings: Sprague-Dawley, rat, parietal cortex (relative to plasma), intravenous; baseline, n = 5, metabolite-corrected plasma input and brain data; read-out: VT (Logan), parietal cortex
Measurement label: Kp
Reply with the value as a number alone.

Sample O=C1N[11C](=O)NC1(c1ccccc1)c1ccccc1 [[^11C]phenytoin] ; Kp observed: 0.91

* * *

System: P-gp
Experiment: PET Logan graphical analysis of brain VT, baseline and after tariquidar P-gp block
Format: in vivo, Sprague–Dawley rats
Conditions: Sprague-Dawley, rat, cerebellum (relative to plasma), intravenous; baseline, n = 5, metabolite-corrected plasma input and brain data; read-out: VT (Logan), cerebellum
Measurement label: Kp
In your answer, state the number alone without any accompanying words.

Value of Kp reported for the molecule O=C1N[11C](=O)NC1(c1ccccc1)c1ccccc1 [[^11C]phenytoin] is 1.02

* * *

Tested on: P-gp
Assay: PET Logan graphical analysis of brain VT, baseline and after tariquidar P-gp block
Type: in vivo, Sprague–Dawley rats
Conditions: Sprague-Dawley, rat, caudate putamen (relative to plasma), iv, with tariquidar 15 mg/kg i.v.; after tariquidar 15 mg·kg^−1 i.v., n = 5, metabolite-corrected; read-out: VT (Logan), caudate putamen
Measurement label: Kp
// keep it numeric: no unit symbol after the value

Query O=C1N[11C](=O)NC1(c1ccccc1)c1ccccc1 [[^11C]phenytoin] yields Kp of 1.48
